- System: H2122 cells (KRAS G12C)
- measurement-description: Cell viability assay (CellTiter-Glo), H2122
- Assay type: cell-based, Human
- conditions-used: Homo sapiens, NCI-H2122, single agent, 72 hours, read-out: IC50s, cell proliferation
quantity-measured: IC50 (nM)
Answer in nM, number only, no unit symbol.

Just so you know, measured IC50 for C=CC(=O)N1CCN(c2ncnc3c(F)c(-c4c(O)cccc4F)c(Cl)cc23)CC1 came out at 1290

Just so you know, measured IC50 for C[C@H]1CNC(=O)c2cnn3ccc(nc23)N[C@H](C)c2cc(F)ccc2O1 came out at 1940

====

- Tested on: H2122 cells (KRAS G12C)
- measurement-description: Cell viability assay (CellTiter-Glo), H2122
- Assay type: cell-based, Human
- conditions-used: KRAS G12C inhibitor in combination with Compound 1 (1 μM), 72 hours, read-out: IC50s, cell proliferation
quantity-measured: IC50

Case C=CC(=O)N1CCN(c2ncnc3c(F)c(-c4c(O)cccc4F)c(Cl)cc23)CC1 , H2122 cells (KRAS G12C), IC50 recorded as 52 nM
